Target: Complement C1s subcomponent (Homo sapiens)
Test: complement C1s protease inhibitors, primary screen, biochemical, 10-compound mixtures (AID 538);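 also: 0% = enzyme wells lacking compound mixture and 100% = no-enzyme blank wells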
Settings: purified C1s, fluorogenic AMC substrate, pooled mixtures; screened at 5 µM (by protocol)
In all, about 62,000 compounds went through this assay and about 100 (0.16%) were called active.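 The calls were made as follows: active = inhibition above 20% in each of the two 10-compound mixture wells holding the compound; inactive = the rest.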 Only a selection was taken, and actives are over-represented in it overall.
The reply should be one of these categories: active, inactive

Observe how each entry below is paired with its result.
CN1CCN(C(=O)c2ccc(NS(=O)(=O)c3ccccc3)cc2)CC1: inactive
CCCCSc1nnc(-c2ccc(NC(=O)CC)cc2)n1C: inactive
CC1CCN(C(=O)Cn2cc(C(=O)c3ccco3)c3ccccc32)CC1: inactive
Cc1ccc(S(=O)(=O)n2nc(OC(=O)C(C)(C)C)cc2N)cc1: inactive
CCCC1C(c2ccccc2)C(C#N)(C#N)C2(C#N)CC1(N)NC2=O (centres undefined): inactive
CC(C)(C)C(=O)CCN1C(=O)C2(OCCO2)c2ccccc21: inactive
CCOC(=O)c1nnn(-c2nc(OC)nc(N(C)C)n2)c1-c1ccccc1: inactive
CC(=O)Oc1cccc(N2C(=O)CC(Nc3ccc(N4CCOCC4)cc3)C2=O)c1 (centres undefined): inactive

Lookup: Which outcome did this test record for the compound O=C(c1cccc(S(=O)(=O)N2CCOCC2)c1)N1CCOCC1 ?
Found: inactive

Lookup: Which outcome did this test record for the compound COC(=O)Cn1c(=NC(=O)CSCC(=O)Nc2cc(C)on2)sc2ccccc21 ?
Found: inactive

Lookup: Which outcome did this test record for the compound CCCOC(=O)C1=C(C)NC2=C(C(=O)C(C(=O)OC)C(C)C2)C1c1ccc(N(C)C)cc1 (centres undefined) ?
Found: inactive

Lookup: Which outcome did this test record for the compound O=S(=O)(NCc1ccccn1)c1ccc(Br)s1 ?
Found: inactive

Lookup: Which outcome did this test record for the compound Cc1nc(Nc2ccc3c(c2)OCCO3)c2nnn(Cc3ccccc3Cl)c2n1 ?
Found: inactive

Lookup: Which outcome did this test record for the compound COc1ccccc1NC1=NC2(CCCC2)N=C(N)N1 ?
Found: inactive

---

Target: Complement C1s subcomponent (Homo sapiens)
Assay: complement C1s protease inhibitors, primary screen, biochemical, 10-compound mixtures (AID 538);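 also: 0% = enzyme wells lacking compound mixture and 100% = no-enzyme blank wells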
Details: purified C1s, fluorogenic AMC substrate, pooled mixtures; screened at 5 µM (by protocol)
Hit rate of the full screen: of about 62,000 compounds, about 100 (0.16%) were called active. The list comes from a sample in which actives are over-represented; it also holds close analogues and randomly drawn compounds.
Recorded endpoint: mean inhibition % of two 10-compound mixtures (hits give high values) (%)
# output: bare number, implied unit %

CCn1ncc(C2=NOC(C(=O)Nc3ccccc3C(=O)OC)C2)c1C (stereo not drawn): 1.96
CC1CCc2c(sc(NC(=O)c3ccc(Cn4cc(Br)cn4)o3)c2C(N)=O)C1 (stereo not drawn): -5.95
Cc1ncc(CC(=O)n2cc(C(=O)c3cc(Cl)ccc3O)cn2)s1: 8.66
COc1cc2c(cc1OC)C(c1ccncc1)CC(=O)N2 (stereo not drawn): -11.7
CN(C)CCCNc1c2c(c(C#N)c3nc4ccccc4n13)CCC2: 11.8
CC1OC2C(OC1C)N(S(C)(=O)=O)CCN2S(C)(=O)=O (stereo not drawn): 6.29

Lookup: Recall and state the measured mean inhibition % of two 10-compound mixtures (hits give high values) for O=S(=O)(NCCOc1cccc2cccnc12)c1ccc(F)cc1 .
Found: 8.29

Lookup: Recall and state the measured mean inhibition % of two 10-compound mixtures (hits give high values) for CCC/C(O)=C1\C(=O)CC(C)(C)CC1=Nc1ccccc1OC .
Found: 9.67
